# Experimental System: human 5-HT1E receptor (Homo sapiens)
# Assay: [3H]5-HT displacement binding, membranes of Ltk- cells transfected with cloned 5-HT1E receptor
# Parameters: The entire coding region of clone hp75d was cloned into the eukaryotic expression vector pcEXV-3; expressed in transfected cells; host or cells: Ltk- mouse fibroblast cells (line 5-HT1E-7, ATCC CRL 10913, plasmid pcEXV-hp75d)
Parameter Ki: see the listing below.
Please give a number only; it is taken to be in µM.

{"columns": ["Structure", "Experimental System", "Ki (µM)"],
 "data": [
  ["C[C@@H](CO)NC(=O)[C@@H]1C=C2c3cccc4[nH]cc(c34)C[C@H]2N(C)C1", "human 5-HT1E receptor (Homo sapiens)", 0.0877]
]}

As a next step, examine the molecule that follows.
Asked: I am curious: what Ki value has been reported for COC(=O)[C@H]1[C@H]2C[C@H]3c4[nH]c5ccccc5c4CCN3C[C@H]2CC[C@@H]1O ?
Given back: 3.43

----------
# Experimental System: human 5-HT1E receptor
# Assay: Inhibition of [3H]5-HT specific binding by Gpp(NH)p (G-protein coupling)
# Measurement Setup: inhibition of specific binding of [3H]5-HT
Result Type: pIC50
Please note pIC50 is a logarithmic value: minus log10 of concentration in mol/L. Answer with that number alone.

Asked: Which measured pIC50 value corresponds to Nc1nc2c(ncn2[C@@H]2O[C@H](COP(=O)(O)OP(=O)(O)NP(=O)(O)O)[C@@H](O)[C@H]2O)c(=O)[nH]1 [Gpp(NH)p] ?
Given back: 5.72

----------
Parameter: Ki. Scope: all listed entries.
# Experimental System: human 5-HT1E receptor (Homo sapiens, UniProt P28566)
# Sequence (P28566 whole entry): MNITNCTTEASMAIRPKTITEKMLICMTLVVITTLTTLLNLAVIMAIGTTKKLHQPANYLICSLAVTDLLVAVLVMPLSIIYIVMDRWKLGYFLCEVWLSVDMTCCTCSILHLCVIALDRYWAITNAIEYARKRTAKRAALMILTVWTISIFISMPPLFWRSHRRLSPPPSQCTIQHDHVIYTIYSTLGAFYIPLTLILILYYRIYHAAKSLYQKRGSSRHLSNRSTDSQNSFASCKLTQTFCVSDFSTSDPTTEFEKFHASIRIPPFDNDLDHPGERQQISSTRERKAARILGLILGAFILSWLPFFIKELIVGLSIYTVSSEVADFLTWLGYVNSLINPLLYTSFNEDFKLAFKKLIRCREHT
# Assay: [3H]5-HT displacement binding, membranes of Ltk- cells transfected with cloned 5-HT1E receptor
# Design: The entire coding region of clone hp75d was cloned into the eukaryotic expression vector pcEXV-3; expressed in transfected cells; host or cells: Ltk- mouse fibroblast cells (line 5-HT1E-7, ATCC CRL 10913, plasmid pcEXV-hp75d)
# Measurement Setup: displacement of 4.5-5.5 nM [3H]5-HT, 37° C., 30 min, Table 1; read-out: Ki
Respond with the bare value in µM.

Asked: I would be grateful if you could share the reported Ki for c1ccc2c(N3CCNCC3)cccc2c1 .
Given back: 0.207

Asked: Now try CC[C@@H](CO)NC(=O)[C@@H]1C=C2c3cccc4c3c(cn4C)C[C@H]2N(C)C1 [Methysergide] .
Given back: 0.228

Asked: Again, but for COc1cc(CC(C)N)c(OC)cc1I (stereo not shown)
Given back: 2.97

Asked: Repeat with COc1ccc2[nH]cc(CCN)c2c1
Given back: 3.15

----------
# Experimental System: human 5-HT1E receptor (Homo sapiens)
# Assay: [3H]5-HT displacement binding, membranes of Ltk- cells transfected with cloned 5-HT1E receptor
# Set-up: The entire coding region of clone hp75d was cloned into the eukaryotic expression vector pcEXV-3; expressed in transfected cells; host or cells: Ltk- mouse fibroblast cells (line 5-HT1E-7, ATCC CRL 10913, plasmid pcEXV-hp75d)
# Measurement Setup: displacement of 4.5-5.5 nM [3H]5-HT, 37° C., 30 min, Table 1; read-out: Ki
Result Type: pKi
In simple prose, pKi is minus the logarithm base ten of a concentration in moles per litre.

{"columns": ["Compound", "Experimental System", "pKi"],
 "data": [
  ["CCCN(CCC)C1CCc2cccc(O)c2C1 (stereo not drawn)", "human 5-HT1E receptor (Homo sapiens)", 5.48]
]}

Asked: So what's the measured pKi for this one? Cc1cc(C(C)(C)C)c(O)c(C)c1CC1=NCCN1
Given back: 6.38

Asked: Input FC(F)(F)c1cccc(N2CCNCC2)c1
Given back: 5.20

Asked: What do we get for CN1C[C@H](C(=O)N[C@]2(C)O[C@@]3(O)[C@@H]4CCCN4C(=O)[C@H](Cc4ccccc4)N3C2=O)C=C2c3cccc4[nH]cc(c34)C[C@H]21 ?
Given back: 6.22

Asked: Please give the result for Cc1[nH]c2ccc(O)cc2c1CCN too.
Given back: 6.09

Asked: Then CSc1ccc2c(c1)C(N1CCN(C)CC1)Cc1ccccc1S2 (stereo not drawn) [Methiothepin] ?
Given back: 6.71

Asked: Another compound to look at: CN1C[C@H](CO)C=C2c3cccc4[nH]cc(c34)C[C@H]21
Given back: 7.37

Asked: Please give the result for COC(=O)[C@@H]1[C@H]2C[C@H]3c4[nH]c5ccccc5c4CCN3C[C@@H]2CC[C@@H]1O too.
Given back: 5.90

Asked: Another: NCCc1c[nH]c2ccccc12
Given back: 5.59

----------
# Experimental System: human 5-HT1E receptor (Homo sapiens, UniProt P28566)
# Assay: [3H]5-HT displacement binding, membranes of Ltk- cells transfected with cloned 5-HT1E receptor
# Parameters: The entire coding region of clone hp75d was cloned into the eukaryotic expression vector pcEXV-3; expressed in transfected cells; host or cells: Ltk- mouse fibroblast cells (line 5-HT1E-7, ATCC CRL 10913, plasmid pcEXV-hp75d)
# Measurement Setup: displacement of 4.5-5.5 nM [3H]5-HT, 37° C., 30 min, Table 1; read-out: Ki
Result Type: Ki (µM)
Reply with just the number (in µM).

Asked: Record lookup: for human 5-HT1E receptor (Homo sapiens, UniProt P28566), what Ki belongs to O=C(CCCN1CCC2(CC1)C(=O)NCN2c1ccccc1)c1ccc(F)cc1 ?
Given back: 5.05

Asked: Try CC[C@@H](CO)NC(=O)[C@@H]1C=C2c3cccc4[nH]cc(c34)C[C@H]2N(C)C1 next.
Given back: 0.0894

Asked: Param item: NCCc1c[nH]c2ccc(C(N)=O)cc12
Given back: 7.88
